Data origin: patent US20260116991A1

Let's look at some binders and their measured OD450 at 0.11 nM.
- system: biotinylated labeled human GPC3 protein (produced in-house) (human, UniProt P51654 25-559, limits assumed, biotinylated (Dojindo, Cat. No. LK03); sites not stated)
- assay-protocol: ELISA, biotinylated human GPC3 protein
Numeric answer only, unit OD450 assumed.

// query OD450 at 0.11 nM value for entry hAb003LH3L1b (antibody, human IgG1, V domains shown, Humanized F2.154.1; VH H3 + VL L1b; expressed as human IgG1) VH: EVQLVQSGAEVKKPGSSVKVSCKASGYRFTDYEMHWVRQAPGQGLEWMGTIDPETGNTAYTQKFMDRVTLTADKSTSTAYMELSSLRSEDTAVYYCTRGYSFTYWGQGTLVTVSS VL: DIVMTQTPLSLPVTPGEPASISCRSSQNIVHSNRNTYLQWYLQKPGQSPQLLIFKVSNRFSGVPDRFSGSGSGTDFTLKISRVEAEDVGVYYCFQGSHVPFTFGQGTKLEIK
2

// query OD450 at 0.11 nM value for entry hAb006LH1L1 (antibody, human IgG1, V domains shown, Humanized F3.38.7; VH H1 + VL L1; expressed as human IgG1) VH: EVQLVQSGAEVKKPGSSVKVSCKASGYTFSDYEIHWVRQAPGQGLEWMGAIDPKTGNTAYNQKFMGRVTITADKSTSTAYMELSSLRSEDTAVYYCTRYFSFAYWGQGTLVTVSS VL: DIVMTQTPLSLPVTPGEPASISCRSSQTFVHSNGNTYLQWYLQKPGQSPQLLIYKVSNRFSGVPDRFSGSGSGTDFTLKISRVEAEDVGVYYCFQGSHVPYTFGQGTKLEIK
1.9
